B1: CDKL4 (parent)
chain: AVKKFVESEDDPVVKKIALREIRM

Variants of: B1
ASSAY NAME: protein stability index of a GFP-peptide fusion (GPS, HEK-293T) (PSI 1-6); higher = more stable;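 further: lentivirally expressed fusions sorted by FACS into six bins by GFP to DsRed ratio, PSI derived from sequencing read proportions per bin multiplied by bin number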
MEASUREMENT PARAMETERS: c terminus: a fixed tail appended
# protein stability index per entry
VALUE TYPE: protein stability index

SEQUENCE INPUT | ENDPOINT VALUE
AVKKFVISEDDPVVKKIALREIRM [E7I] | 2
AVKKFVESEDDQVVKKIALREIRM [P12Q] | 2.45
AVKKFVESEDDEVVKKIALREIRM [P12E] | 3.88
AVKKFVESEDDPVVKKIELREIRM [A18E] | 3.37
AVKKFVESEDDPVAKKIALREIRM [V14A] | 3.01
